- Assay target: PDZ protein (GST-PDZ fusion) (Homo sapiens, UniProt Q9UDY2)
- Construct: made in house; host or cells: E. coli (DH5alpha, BL21 or JM109)
- Sequence (Q9UDY2 1-1190): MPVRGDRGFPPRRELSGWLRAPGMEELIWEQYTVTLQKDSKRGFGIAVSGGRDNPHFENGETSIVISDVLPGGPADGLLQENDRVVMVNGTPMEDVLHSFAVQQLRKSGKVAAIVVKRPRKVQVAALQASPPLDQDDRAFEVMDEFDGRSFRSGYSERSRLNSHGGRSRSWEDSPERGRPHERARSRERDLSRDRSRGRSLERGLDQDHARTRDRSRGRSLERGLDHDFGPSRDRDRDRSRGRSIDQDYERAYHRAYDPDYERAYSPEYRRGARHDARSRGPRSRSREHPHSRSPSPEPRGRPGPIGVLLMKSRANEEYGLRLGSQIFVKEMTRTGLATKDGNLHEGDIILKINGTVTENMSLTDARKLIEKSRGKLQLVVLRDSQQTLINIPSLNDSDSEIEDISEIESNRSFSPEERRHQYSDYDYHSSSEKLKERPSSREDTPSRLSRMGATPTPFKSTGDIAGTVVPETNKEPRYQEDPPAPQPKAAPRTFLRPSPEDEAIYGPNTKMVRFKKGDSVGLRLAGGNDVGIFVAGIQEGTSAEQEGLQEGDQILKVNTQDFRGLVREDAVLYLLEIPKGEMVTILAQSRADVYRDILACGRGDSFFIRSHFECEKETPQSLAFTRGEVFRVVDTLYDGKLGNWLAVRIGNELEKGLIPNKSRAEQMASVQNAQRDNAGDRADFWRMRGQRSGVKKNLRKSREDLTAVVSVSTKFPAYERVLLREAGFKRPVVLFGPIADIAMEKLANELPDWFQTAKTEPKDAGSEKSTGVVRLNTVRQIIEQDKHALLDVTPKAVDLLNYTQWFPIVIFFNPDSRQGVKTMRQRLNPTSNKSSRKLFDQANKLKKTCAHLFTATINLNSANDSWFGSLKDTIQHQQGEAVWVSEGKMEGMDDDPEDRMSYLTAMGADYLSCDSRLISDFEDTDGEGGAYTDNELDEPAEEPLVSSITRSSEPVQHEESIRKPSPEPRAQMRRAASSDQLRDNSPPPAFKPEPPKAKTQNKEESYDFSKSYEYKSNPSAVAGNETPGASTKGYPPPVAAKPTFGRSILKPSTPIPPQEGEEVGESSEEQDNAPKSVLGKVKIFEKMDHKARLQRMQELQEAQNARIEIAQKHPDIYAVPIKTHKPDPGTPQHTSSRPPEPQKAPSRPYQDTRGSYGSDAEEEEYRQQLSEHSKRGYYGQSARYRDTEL
- Measurement protocol: G' assay (10 uM PL peptide), results of TABLE 7 and TABLE 12
- Type: binding
- Test conditions: PDZ ZO-2, PDZ Domain 2
Ends that are not written are not given here. * marks the point of attachment. Biotin = O=C1N[C@H]2[C@H](CS[C@H]2CCCCC(=O)*)N1
Below: a set of entries, each annotated with reported Classification.

Take a look at these entries with their results.
TEGNESSEATSPVNAIYSLA (Biotin-TEGNESSEATSPVNAIYSLA) [neurofascin (chicken)] ... 1 (A450 nm 0-1)
PSSRASSRASSRPRPDDLEI (Biotin-PSSRASSRASSRPRPDDLEI) [CX43] ... 1 (A450 nm 0-1)
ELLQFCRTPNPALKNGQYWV (Biotin-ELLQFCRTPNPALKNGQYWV) ... 1 (A450 nm 0-1)

We next turn to a different substance, shown below.
Requested read-out: Classification. Entry: A2AA_HUMAN (modified) (Biotin-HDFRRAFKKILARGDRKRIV; not fully specified)
2 (A450 nm 1-2)
